Recorded CC50 (50% cytotoxic concentration), one value per entry.
System: Diamond python heart cells (DPHt)
Test: Cytotoxicity in uninfected wells of the CPE assay
Assay type: cell-based, Diamond python (Morelia spilota spilota)
Conditions: Diamond python (Morelia spilota spilota)

{"columns": ["COMPOUND", "CC50 (50% cytotoxic concentration)"],
 "data": [
  ["NC(=O)c1nc(F)c[nH]c1=O [Favipiravir]", ">320 µg/mL"],
  ["NC(=O)c1ncn([C@@H]2O[C@H](CO)[C@@H](O)[C@H]2O)n1 [Ribavirin]", ">1000 µg/mL"],
  ["CCC(CC)COC(=O)[C@H](C)N[P@](=O)(OC[C@H]1O[C@@](C#N)(c2ccc3c(N)ncnn23)[C@H](O)[C@@H]1O)Oc1ccccc1 [Remdesivir]", "2.3 ± 1.8 µg/mL"]
]}

These entries and their values trace back to paper PMC10305148.
